# measured.on: Transient receptor potential cation channel subfamily V member 1 (Rattus norvegicus)
# procedure.summary: Agonist activity at rat TRPV1 expressed in CHO cells assessed as increase of capsaicin-induced calcium uptake relative to capsaicin
# Assay type: functional, cell-based
property: Activity
Note to self: number, then unit, no commentary.

Please review the following examples before continuing.
[
  {
    "molecule": "COc1cc(CC(=O)NCC(COC(=O)C(C)(C)C)Cc2ccc(C(C)(C)C)cc2)c(Br)cc1NS(C)(=O)=O (centres undefined)",
    "Activity": "14%"
  },
  {
    "molecule": "CC(C)(C)C(=O)OCC(CNC(=O)Cc1ccc(N)c(Br)c1)Cc1ccc(C(C)(C)C)cc1 (centres undefined)",
    "Activity": "59%"
  }
]

# batch size: 2; output Activity per entry
1. COc1cc(CC(=O)NCC(COC(=O)C(C)(C)C)Cc2ccc(C)c(C)c2)cc(I)c1OC(C)=O (centres undefined)
2. COc1cc(CC(=O)NCC(COC(=O)C(C)(C)C)Cc2ccc(C)c(C)c2)cc(Br)c1O (centres undefined)

12%
43%

====

Could you please report measured inhibition for the items listed next?
# measured.on: UniProt:O35433
# Sequence (O35433 whole entry): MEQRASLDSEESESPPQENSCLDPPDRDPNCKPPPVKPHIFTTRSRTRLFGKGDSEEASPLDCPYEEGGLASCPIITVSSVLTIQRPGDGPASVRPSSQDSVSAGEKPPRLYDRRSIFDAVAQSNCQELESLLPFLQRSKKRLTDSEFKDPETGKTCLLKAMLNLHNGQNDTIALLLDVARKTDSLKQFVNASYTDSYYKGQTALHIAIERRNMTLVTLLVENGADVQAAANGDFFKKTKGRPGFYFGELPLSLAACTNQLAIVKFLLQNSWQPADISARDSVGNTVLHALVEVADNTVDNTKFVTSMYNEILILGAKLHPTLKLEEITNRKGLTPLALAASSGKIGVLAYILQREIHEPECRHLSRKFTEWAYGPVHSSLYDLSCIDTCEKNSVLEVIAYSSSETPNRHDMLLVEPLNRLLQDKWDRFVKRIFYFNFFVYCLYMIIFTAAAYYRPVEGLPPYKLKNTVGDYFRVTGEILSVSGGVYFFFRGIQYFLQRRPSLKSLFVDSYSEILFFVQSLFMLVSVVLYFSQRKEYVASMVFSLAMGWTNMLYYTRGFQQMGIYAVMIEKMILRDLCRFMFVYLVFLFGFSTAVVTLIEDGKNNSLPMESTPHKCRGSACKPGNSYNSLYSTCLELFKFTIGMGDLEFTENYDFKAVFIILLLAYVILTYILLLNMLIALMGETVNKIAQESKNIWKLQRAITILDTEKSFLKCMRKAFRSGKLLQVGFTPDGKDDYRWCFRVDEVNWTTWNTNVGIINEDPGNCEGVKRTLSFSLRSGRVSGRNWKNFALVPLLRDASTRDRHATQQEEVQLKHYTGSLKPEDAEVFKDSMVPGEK
# procedure.summary: Partial antagonist activity at rat TRPV1 expressed in CHO cells assessed as inhibition of capsaicin-induced calcium uptake
# Assay type: functional, cell-based
# applied.conditions: concentration not given here
Give bare numbers, in %.

[
  {
    "compound": "COc1cc(CC(=O)NCC(COC(=O)C(C)(C)C)Cc2ccc(C)c(C)c2)cc(Br)c1O (configuration not stated)",
    "value.unit": "%",
    "inhibition": 62
  },
  {
    "compound": "COc1cc(CC(=O)NCc2ccc(C(C)(C)C)cc2)c(I)cc1O",
    "value.unit": "%",
    "inhibition": 55
  },
  {
    "compound": "COc1cc(CC(=O)NCC(COC(=O)C(C)(C)C)Cc2ccc(C(C)(C)C)cc2)cc(Cl)c1OC(C)=O (configuration not stated)",
    "value.unit": "%",
    "inhibition": 58
  },
  {
    "compound": "COc1cc(CC(=O)NCc2ccc(C(C)(C)C)cc2)c(Br)cc1O",
    "value.unit": "%",
    "inhibition": 42
  },
  {
    "compound": "COc1cc(CC(=O)NCC(COC(=O)C(C)(C)C)Cc2ccc(C(C)(C)C)cc2)c(Br)cc1O (configuration not stated)",
    "value.unit": "%",
    "inhibition": 76
  }
]

# batch size: 2; output inhibition per entry
1. COc1cc(CC(=O)NCc2ccc(C(C)(C)C)cc2)c(Cl)cc1OC(C)=O
2. COc1cc(CC(=O)NCC(COC(=O)C(C)(C)C)Cc2ccc(C(C)(C)C)cc2)cc(Cl)c1O (configuration not stated)

[62, 76]

Data provenance: ChEMBL document CHEMBL1275346
